Molecular target: T1, TNFR1 (Homo sapiens, UniProt P19438)
T1 chain: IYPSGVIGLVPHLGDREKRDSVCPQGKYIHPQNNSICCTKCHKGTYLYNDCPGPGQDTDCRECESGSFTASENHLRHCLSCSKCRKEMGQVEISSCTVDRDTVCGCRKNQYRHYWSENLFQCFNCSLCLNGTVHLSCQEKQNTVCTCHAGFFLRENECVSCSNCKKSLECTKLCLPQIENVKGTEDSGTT
Assay: yeast display SC50
Measured apparent Kd (screen), listed per entry.
Answer format: numeric, nM implied, no suffix.

binder | endpointUnit | apparent Kd (screen)
K88L (designed binder) SMEEEVEKAAKEYEKKKKEAIEKHLEKLKAKDKEAAERFLKELEEAAKEYAKDEAKTMSEEEAKRRAKKYKEKVLLSELSEEEQKEILEAEEKLVRTILKYVEEAAK | nM | 0.49

Q) # query: apparent Kd (screen) of entry E83R (designed binder) SMEEEVEKAAKEYEKKKKEAIEKHLEKLKAKDKEAAERFLKELEEAAKEYAKDEAKTMSEEEAKRRAKKYKEKVLLSELSEERQKEIKEAEEKLVRTILKYVEEAAK
A) 0.539

Q) # lookup: apparent Kd (screen) of E86V (designed binder) SMEEEVEKAAKEYEKKKKEAIEKHLEKLKAKDKEAAERFLKELEEAAKEYAKDEAKTMSEEEAKRRAKKYKEKVLLSELSEEEQKVIKEAEEKLVRTILKYVEEAAK
A) 1.05

Q) What value of apparent Kd (screen) has been reported for the following binder? T57A (designed binder) SMEEEVEKAAKEYEKKKKEAIEKHLEKLKAKDKEAAERFLKELEEAAKEYAKDEAKAMSEEEAKRRAKKYKEKVLLSELSEEEQKEIKEAEEKLVRTILKYVEEAAK
A) 2.73

Q) Which apparent Kd (screen) is reported for this binder? V102H (designed binder) SMEEEVEKAAKEYEKKKKEAIEKHLEKLKAKDKEAAERFLKELEEAAKEYAKDEAKTMSEEEAKRRAKKYKEKVLLSELSEEEQKEIKEAEEKLVRTILKYHEEAAK
A) 0.49

Q) What apparent Kd (screen) value was documented for this binder, E49N (designed binder) SMEEEVEKAAKEYEKKKKEAIEKHLEKLKAKDKEAAERFLKELEEAAKNYAKDEAKTMSEEEAKRRAKKYKEKVLLSELSEEEQKEIKEAEEKLVRTILKYVEEAAK ?
A) 10.4

Q) GET /values?readout=apparent Kd (screen)&item= E54L (designed binder) SMEEEVEKAAKEYEKKKKEAIEKHLEKLKAKDKEAAERFLKELEEAAKEYAKDLAKTMSEEEAKRRAKKYKEKVLLSELSEEEQKEIKEAEEKLVRTILKYVEEAAK
A) 4.39

Q) Recorded apparent Kd (screen) of T97E (designed binder) SMEEEVEKAAKEYEKKKKEAIEKHLEKLKAKDKEAAERFLKELEEAAKEYAKDEAKTMSEEEAKRRAKKYKEKVLLSELSEEEQKEIKEAEEKLVREILKYVEEAAK , please.
A) 1.69

The values you see were collected from paper PMC12416549.
